# systemUnderTest: T1, Anti-PSMA Fab
# T1 construct: Biotinylated and captured on neutravidin coated plates in the phage ELISA; also called 006 PSMA Fab
# experimentDescription: clonal phage ELISA on biotinylated PSMA Fab captured on neutravidin plate, anti-M13 HRP detection, blocking buffer alone
Where no end group is shown, it is not given here.
propertyName: Phage binding ELISA signal, Anti-PSMA Fab

[[record]]
binder = "LEMVCKPEWMCLGL (cysteine pairing not given here; also: fused to pIII of bacteriophage, pIII and linker not given here, Peptide-180 library clone, tested as clonal phage supernatant with the peptide fused to pIII of the bacteriophage) [Phage-3491]"
observedmeasurement = 1.71

[[record]]
binder = "YPTWCVPTWMCTGM (cysteine pairing not given here; also: fused to pIII of bacteriophage, pIII and linker not given here, Peptide-180 library clone, tested as clonal phage supernatant with the peptide fused to pIII of the bacteriophage) [Phage-3493]"
observedmeasurement = 1.71

[[record]]
binder = "WLYSCIPQWMCTGF (cysteine pairing not given here; also: fused to pIII of bacteriophage, pIII and linker not given here, Peptide-180 library clone, tested as clonal phage supernatant with the peptide fused to pIII of the bacteriophage) [Phage-3502]"
observedmeasurement = 1.7

[[record]]
binder = "THPLCVPTWMCSGF (cysteine pairing not given here; also: fused to pIII of bacteriophage, pIII and linker not given here, Peptide-180 library clone, tested as clonal phage supernatant with the peptide fused to pIII of the bacteriophage) [Phage-3499]"
observedmeasurement = 1.7


// data source = patent US20260242478A1
